Every entry's value here was drawn from patent US20210380703A1.

assay.system: mouse ACVR2A (mouse, UniProt P27038 20-135, limits assumed); further: test concentration or dose not given here
Sequence (P27038 20-135 limits assumed): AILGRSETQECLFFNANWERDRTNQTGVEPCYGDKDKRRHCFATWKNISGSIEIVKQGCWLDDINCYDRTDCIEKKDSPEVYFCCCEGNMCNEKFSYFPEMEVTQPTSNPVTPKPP
assay.explanation: ELISA
property.name: optical density (OD)
# output: bare number, implied unit OD

[[record]]
binder = "373_D09 (antibody, V domains shown, VH and VL only) VH: EVQLLESGGGLVQPGGSLRLSCAASGFTFDSYSMNWVRQAPGKGLEWVSGINYNSGYTSYADSVKGRFTISRDNSKNTLYLQMNSLRAEDTAVYYCARSATWHDTHLDYWGQGTLVTVSS VL: DIQMTQSPSSLSASVGDRVTITCRASQSILTYLNWYQQKPGKAPKLVIYAATSRHSGVPSRFSGSGSGTDFTLTISSLQPEDFATYYCQQSYENPLTFGGGTKVEIK"
value = 3.5

[[record]]
binder = "376_G11 (antibody, V domains shown, VH and VL only) VH: EVQLLESGGGLVQPGGSLRLSCAASGFTFSSYSMNWVRQAPGKGLEWVSGINYNSGYKSYADSVKGRFTISRDNSKNTLYLQMNSLRAEDTAVYYCARSATWHDTHLDYWGQGTLVTVSS VL: DIQMTQSPSSLSASVGDRVTITCRASQSIVTYVNWYQQKPGKAPKLVIYAATSLASGVPSRFSGSGSGTDFTLTISSLQPEDFATYYCQQSYNLPLTFGGGTKVEIK"
value = 3.6

[[record]]
binder = "376_A01 (antibody, V domains shown, VH and VL only) VH: EVQLLESGGGLVQPGGSLRLSCAASGFTFDSYGMNWVRQAPGKGLEWVSNINYNGGYTGYADSVKGRFTISRDNSKNTLYLQMNSLRAEDTAVYYCARSATWHDTHLDYWGQGTLVTVSS VL: DIQMTQSPSSLSASVGDRVTITCRASQSIVSYLNWYQQKPGKAPKLLIYAATSRASGVPSRFSGSGSGTDFTLTISSLQPEDFATYYCQQSYSTPLTFGGGTKVEIK"
value = 3.66

[[record]]
binder = "374_E03 (antibody, V domains shown, VH and VL only) VH: EVQLLESGGGLVQPGGSLRLSCAASGFTFSSYSMNWVRQAPGKGLEWVSNINYNSGYKGYADSVKGRFTISRDNSKNTLYLQMNSLRAEDTAVYYCARSATWHDTHLDYWGQGTLVTVSS VL: DIQMTQSPSSLSASVGDRVTITCRASQSILTYVNWYQQKPGKAPKLVIYAATSLASGVPSRFSGSGSGTDFTLTISSLQPEDFATYYCQQSYDTPLTFGGGTKVEIK"
value = 3.79

[[record]]
binder = "369_D06 (antibody, V domains shown, VH and VL only) VH: EVQLLESGGGLVQPGGSLRLSCAASGFTFDSYSMNWVRQAPGKGLEWVSGINYNGGYTGYADSVKGRFTISRDNSKNTLYLQMNSLRAEDTAVYYCARSATWHDTHLDYWGQGTLVTVSS VL: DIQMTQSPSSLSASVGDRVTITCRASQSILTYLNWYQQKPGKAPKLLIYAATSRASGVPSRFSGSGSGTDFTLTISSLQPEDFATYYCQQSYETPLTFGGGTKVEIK"
value = 3.35


// returns reported optical density for input 375_B10 (antibody, V domains shown, VH and VL only) VH: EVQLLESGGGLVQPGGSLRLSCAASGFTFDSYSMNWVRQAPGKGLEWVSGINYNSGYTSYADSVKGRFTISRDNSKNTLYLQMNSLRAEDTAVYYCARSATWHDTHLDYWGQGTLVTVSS VL: DIQMTQSPSSLSASVGDRVTITCRASQSILSYLNWYQQKPGKAPKLLIYAATSRHSGVPSRFSGSGSGTDFTLTISSLQPEDFATYYCQQSYDLPLTFGGGTKVEIK
3.74
